These measurements were taken from patent EP4692071A1.

Experiment: Maximum absorption wavelength (λmax) after color development, spectrophotometer MCPD3000
Format: physicochemical
Conditions: photochromic laminate prepared by coating method; after color development
Source text: • [1] Maximum Absorption Wavelength (λmax): The maximum absorption wavelength after color development, measured using a spectrophotometer (instantaneous multichannel photodetector MCPD3000) manufactured by Otsuka Electronics Co., Ltd. was used as an indicator for the color tone during the color development. • [2] […]
Outcome measure: Maximum absorption wavelength (nm)

>>> result("COCCOCCOCCC1(CCOCCOCCOC)c2ccccc2-c2c1c1c(c3cc(OC)c(N4CCc5cc(F)ccc54)cc23)OC(c2ccc(OC)cc2)(c2ccc(OC)cc2)C=C1 [Formula (50A)]")
522
>>> result("CCCOc1ccc(C2(c3ccc(OCCC)cc3)C=Cc3c4c(c5cc(N6CCc7ccccc76)c(OC)cc5c3O2)-c2ccc(-c3ccc(C)cc3)cc2C42CCCCCCC2)cc1 [Formula (35A)]")
531
>>> result("COc1ccc(C2(c3ccc(N(c4ccccc4)c4ccccc4)cc3)C=Cc3c4c(c5cc(N6CCc7ccccc76)c(OC)cc5c3O2)-c2ccccc2C42CCC3(CCCCC3)CC2)cc1 (centres unmarked) [Formula (57A)]")
548
>>> result("COc1ccc(C2(c3ccc(OC)cc3)C=Cc3c4c(c5cc(N6CCc7cc(C)ccc76)c(OC)cc5c3O2)-c2ccccc2C4(C)C)cc1 [Formula (52A)]")
535
>>> result("CCCC1(C)c2cc(Oc3ccccc3)ccc2-c2c1c1c(c3cc(OC)c(N4CCc5ccccc54)cc23)OC(c2ccc(OC)cc2)(c2ccc3c(c2)CCO3)C=C1 (centres unmarked) [Formula (70A)]")
536
>>> result("COc1ccc(C2(c3ccc(OC)cc3)C=Cc3c4c(c5cc(N6CCCCC6)c(OC)cc5c3O2)-c2ccccc2C4(C)C)cc1 [Formula (E), reference compound]")
481
>>> result("COc1ccc(C2(c3ccc(OC)cc3)C=Cc3c4c(c5cc(N6CCc7ccccc76)c(OC)cc5c3O2)-c2ccccc2C4(C)C)cc1 [Formula (28A)]")
532
>>> result("CCCCC1(CCCC)c2cc(C(F)(F)F)ccc2-c2c1c1c(c3cc(C)c(N4CCc5ccccc54)cc23)OC(c2ccc(OC)cc2)(c2ccc(OC)c(C)c2)C=C1 (centres unmarked) [Formula (64A)]")
523
>>> result("CCCOc1ccc(C2(c3ccc(OC)cc3)C=Cc3c4c(c5cc(N6CCc7ccccc76)c(C)cc5c3O2)-c2ccccc2C4(CCC)CCC)cc1 (centres unmarked) [Formula (31A)]")
520
>>> result("CCC1(CC)CCC2(CC1)c1cc(OC(F)(F)F)ccc1-c1c2c2c(c3cc(OC)c(N4CCc5ccccc54)cc13)OC(c1ccc(OC)cc1)(c1ccc(OCCCO[Si](C)(C)CC[Si](O[Si](C)(C)C)(O[Si](C)(C)C)O[Si](C)(C)C)cc1)C=C2 (centres unmarked) [Formula (74A)]")
522
>>> result("CCCCCCOc1ccc(C2(c3ccc(OCCCCCC)cc3)C=Cc3c4c(c5cc(N6CCc7cc(OC)ccc76)c(OC)cc5c3O2)-c2ccc(-c3ccc(C(F)(F)F)cc3)cc2C42CC(C)(C)CC(C)(C)C2)cc1 [Formula (48A)]")
539

###

Experiment: High-temperature color development rate (A35/A23×100), temperature dependency
Assay type: physicochemical
Conditions: photochromic laminate prepared by coating method
Outcome measure: A35/A23 *100 (%)

>>> result("CCCOc1ccc(C2(c3ccc(OC)cc3)C=Cc3c4c(c5cc(N6CCc7ccccc76)c(C)cc5c3O2)-c2ccc(-c3ccc(F)c(F)c3F)cc2C4(CCCCOC)CCCCOC)cc1F (stereo not shown) [Formula (78A)]")
68
>>> result("CCCCCCOc1ccc(C2(c3ccc(OCCCCCC)cc3)C=Cc3c4c(c5cc(N6CCc7cc(OC)ccc76)c(OC)cc5c3O2)-c2ccc(-c3ccc(C(F)(F)F)cc3)cc2C42CC(C)(C)CC(C)(C)C2)cc1 [Formula (48A)]")
62
>>> result("COc1ccc(C2(c3ccc(OC)cc3)C=Cc3c4c(c5cc(N6CCc7ccccc76)c(OC)cc5c3O2)-c2ccccc2C4(C)C)cc1 [Formula (28A)]")
74
>>> result("COc1ccc(C2(c3ccc(OC)cc3)C=Cc3c4c(c5cc(N6CCCCC6)c(OC)cc5c3O2)-c2ccccc2C4(C)C)cc1 [Formula (E), reference compound]")
71
